From: the Deep4Chem optical property database

# method summary: solvent given as SMILES
# measurement parameters: in CC(C)O
Output criterion met for absorption maximum not less than 400 nm; output criterion not met otherwise.

[[record]]
compound = "COC(=O)c1ccc2c3ccc(C(=O)OC)c4c(C(=O)OC)ccc(c5ccc(C(=O)OC)c1c25)c43"
discrete_label = "criterion met"

[[record]]
compound = "COC(=O)C(Cc1ccc2oc(-c3ccc(-n4c5ccccc5c5ccccc54)cc3)nc2c1)NC(=O)OC(C)(C)C (stereo not drawn)"
discrete_label = "criterion not met"

[[record]]
compound = "CC(=O)c1ccc2ccc3c(NCCC(=O)NCCCCCCc4nc5c(=O)[nH]c(N)nc5n4[C@H]4C[C@H](O)[C@@H](CO)O4)ccc4ccc1c2c43"
discrete_label = "criterion met"

[[record]]
compound = "CC1=C(Cc2ccccc2)C(C)=[N+]2C1=C(C)c1c(C)c(-c3csc(N4CCOCC4)n3)c(C)n1[B-]2(F)F"
discrete_label = "criterion met"

[[record]]
compound = "Nc1ccc2c(C(F)(F)F)cc(=O)oc2c1"
discrete_label = "criterion not met"

[[record]]
compound = "Cc1cc(C2(c3cc(C)c(O)c(Br)c3)OS(=O)(=O)c3ccccc32)cc(Br)c1O"
discrete_label = "criterion met"


// switching to the query compound
Incoming: Has COc1ccc(C#Cc2nc3ccccc3nc2-c2cn(C)c3ccccc23)cc1 a recorded absorption maximum greater than or equal to 400 nm?
Outgoing: criterion met
